Data origin, for the record: paper PMC8769072

Biological target: T1, TLN1 PTB, tag cleaved, for affinity measurements (human)
T1 chain: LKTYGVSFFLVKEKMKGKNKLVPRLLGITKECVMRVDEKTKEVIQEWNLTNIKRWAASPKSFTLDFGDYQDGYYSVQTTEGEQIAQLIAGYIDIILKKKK
Assay: fluorescence polarisation; competition: unlabelled peptide in serial dilution displaces a FITC-labelled probe peptide from the bait domain (master mix with protein at four times the KD of the probe, 10 nM probe, 2 mM DTT); 50 mM KPO4 or NaPO4 pH 7.5; triplicates; probe for KEAP1 Kelch: FITC-NFE2L1 228-243, other probes in Dataset EV6
Details: both partners purified
recorded.metric: pKi
pKi is a log-scale quantity: -log10 of the concentration expressed in molar.

Quick one: pKi for AKWDTANNPLYKEATS (integrin beta-3, human, residues 763-778; source: synthetic peptide, bought: GeneCust) [ITB3_(763–778) peptide from integrin beta‐3, synthetic] ?
3.30
